TGT: ER-alpha (WT) (Homo sapiens (Human), UniProt P03372)
Sequence (P03372 whole entry): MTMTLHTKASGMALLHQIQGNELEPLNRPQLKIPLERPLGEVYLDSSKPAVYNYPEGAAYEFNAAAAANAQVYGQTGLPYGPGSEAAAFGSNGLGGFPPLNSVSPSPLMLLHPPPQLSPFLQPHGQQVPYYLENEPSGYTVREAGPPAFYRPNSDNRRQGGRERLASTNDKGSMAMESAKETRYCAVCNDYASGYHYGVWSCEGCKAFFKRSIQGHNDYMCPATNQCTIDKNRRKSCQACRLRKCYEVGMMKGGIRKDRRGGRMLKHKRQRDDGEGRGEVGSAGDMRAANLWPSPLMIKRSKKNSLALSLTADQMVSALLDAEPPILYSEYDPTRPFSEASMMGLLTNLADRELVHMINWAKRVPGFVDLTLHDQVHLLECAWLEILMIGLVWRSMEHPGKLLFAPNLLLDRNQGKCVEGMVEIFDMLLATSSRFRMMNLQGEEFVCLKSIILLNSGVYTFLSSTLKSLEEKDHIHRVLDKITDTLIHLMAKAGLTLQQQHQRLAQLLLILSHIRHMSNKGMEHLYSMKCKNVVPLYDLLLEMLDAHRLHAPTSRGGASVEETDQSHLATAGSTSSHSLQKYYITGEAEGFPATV
TEST DESCRIPTION: Breast Cancer Cell ERa High Content Fluorescence Imaging Degradation Assay (ER-alpha MCF7 HCS)
Assay type: cell-based
CONDITION PARAMETERS: MCF7 breast cancer cells; plateau of the maximal effect (ERa degradation); DMSO and 5 nM Fulvestrant define 0% and 100% changes in ESR1
Recorded ER-alpha (WT) MCF7 HCS (S inf) values for a group of molecules are listed next.

# MOLECULE, UNIT ABBREVIATION, ER-alpha (WT) MCF7 HCS (S inf)
records = [
    ("CN1CC(CCOc2ccc([C@@H]3c4ccc(O)cc4CC[C@@H]3c3ccccc3)cc2)C1 (stereo in doubt) [A, reference compound]", "%", "−58"),
    ("N#Cc1ccc([C@H]2CCc3cc(O)ccc3[C@H]2c2ccc(OCCN3CC(CF)C3)cc2)cc1", "%", "−30"),
    ("Oc1ccc2c(c1)CC[C@H](c1ccc(F)cc1)[C@@H]2c1ccc(OCCN2CC(CF)C2)cc1", "%", "−97"),
    ("Oc1ccc2c(c1)CC[C@@H](c1ccccc1)[C@H]2c1ccc(OCCN2CC(CCl)C2)cc1", "%", "−93.6"),
    ("Oc1ccc2c(c1)CC[C@H](C1CCOCC1)[C@@H]2c1ccc(OCCN2CC(CF)C2)cc1", "%", "−87.8"),
    ("C[C@@H](COc1ccc([C@H]2c3ccc(O)cc3CC[C@H]2c2ccccc2)cc1)N1CC[C@@H](CF)C1", "%", "−93.4"),
    ("Oc1cccc2c1[C@H](c1ccc(OCCN3CC(CF)C3)cc1)[C@H](c1ccccc1)CC2", "%", "−80"),
]

* * *

TGT: ER-alpha (WT) (Homo sapiens (Human))
TEST DESCRIPTION: Breast Cancer Cell ERa High Content Fluorescence Imaging Degradation Assay (ER-alpha MCF7 HCS)
Assay type: cell-based
CONDITION PARAMETERS: MCF7 breast cancer cells; plateau of the maximal effect (ERa degradation); DMSO and 5 nM Fulvestrant define 0% and 100% changes in ESR1
Experimental: Example 901: Breast Cancer Cell ERa High Content Fluorescence Imaging Degradation Assay MCF7 breast cancer cells were seeded on day 1 at a density of 10,000 cells per well in 384 well poly-lysine coated tissue culture plate (Greiner # T-3101-4), in 50 µL/well RPMI (phenol red free), 10% FBS (Charcoal stripped), containing L-glutamine. […] Quantitative fluorescence imaging of ESR1 was carried out using a Cellomics Arrayscan V® (Thermo). […]

# MOLECULE, TGT, ER-alpha (WT) MCF7 HCS (S inf) (%)
data = [
    ("Oc1cccc2c1[C@@H](c1ccc(OCCN3CC(CF)C3)cc1)[C@@H](c1ccccc1)CC2", "ER-alpha (WT) (Homo sapiens (Human))", "−82"),
    ("Oc1ccc2c(c1)CC[C@@H](c1ccc(F)cc1)[C@H]2c1ccc(OCCN2CC(CF)C2)cc1", "ER-alpha (WT) (Homo sapiens (Human))", "−78"),
    ("Oc1ccc2c(c1)CC[C@@H](C1CCOCC1)[C@H]2c1ccc(OCCN2CC(CF)C2)cc1", "ER-alpha (WT) (Homo sapiens (Human))", "−95.2"),
    ("Oc1ccc2c(c1)CC[C@@H](c1ccccc1)[C@H]2c1ccc(NC2CN(CCCF)C2)cc1", "ER-alpha (WT) (Homo sapiens (Human))", "−35"),
    ("C[C@@H](COc1ccc([C@@H]2c3ccc(O)cc3CC[C@@H]2c2ccccc2)cc1)N1CC[C@@H](CF)C1", "ER-alpha (WT) (Homo sapiens (Human))", "−30"),
    ("Oc1ccc2c(c1)CC[C@@H](c1ccccc1)[C@H]2c1ccc(NCCN2CC(CF)C2)cc1", "ER-alpha (WT) (Homo sapiens (Human))", "−89.89"),
    ("Oc1ccc2c(c1)CC[C@H](c1ccccc1)[C@@H]2c1ccc(NCCN2CC[C@@H](CF)C2)cc1", "ER-alpha (WT) (Homo sapiens (Human))", "−50"),
    ("Oc1ccc2c(c1)CC[C@H](c1ccccc1)[C@@H]2c1ccc(NC2CN(CCCF)C2)cc1", "ER-alpha (WT) (Homo sapiens (Human))", "−99.9"),
    ("N#Cc1ccc([C@@H]2CCc3cc(O)ccc3[C@@H]2c2ccc(OCCN3CC(CF)C3)cc2)cc1", "ER-alpha (WT) (Homo sapiens (Human))", "−99.2"),
    ("Oc1ccc2c(c1)CC[C@@H](c1ccccc1)[C@H]2c1ccc(NCCN2CC[C@@H](CF)C2)cc1", "ER-alpha (WT) (Homo sapiens (Human))", "−45"),
    ("Oc1ccc2c(c1)CC[C@@H](c1ccccc1)[C@H]2c1ccc(OCCN2CCC(CF)C2)cc1 (stereo partly drawn)", "ER-alpha (WT) (Homo sapiens (Human))", "−94.2"),
    ("Oc1ccc2c(c1)CC[C@H](c1ccccc1)[C@@H]2c1ccc(OCCN2CC(C(F)F)C2)cc1", "ER-alpha (WT) (Homo sapiens (Human))", "−93.6"),
]
